Entries annotated with measured Percent Effect
target: Arginase-2, mitochondrial (Homo sapiens); assay: in vitro enzyme assay to detect the production of urea directly proportional to the activity of Arginase II; assay type: functional; design: scale not given: in the data most compounds retested in dose-response had high values; details: 33.3 µM
// units = %; emit number, no label

Query string: Quickly give me recorded Percent Effect for Cn1cc(C(=O)N2CCC(Cc3nccs3)CC2)cn1
Result string: -1.33

Query string: Quickly give me recorded Percent Effect for CC(Cn1cccn1)NC(=O)NCc1ccccn1 (configuration not stated)
Result string: 1.33

Query string: Quickly give me recorded Percent Effect for CCN(CC)C(=O)C(c1ccccc1)N1CCn2c(C)nnc2C1 (configuration not stated)
Result string: 0.82

Query string: Quickly give me recorded Percent Effect for O=C(c1cc(C2CC2)[nH]n1)N1CCCC(n2cncn2)C1 (configuration not stated)
Result string: 1.23

----------
Entries annotated with measured Percent Effect
target: AMP-activated protein kinase, AMPK (Homo sapiens) (UniProt P54646+O43741+P54619+Q9UGJ0+Q9Y478+Q13131+Q9UGI9); test: AMP-dependent Kinase enzyme assay. An in vitro enzyme assay that detects ADP turnover that is directly proportional to AMPK activity. This uses naive AMPK that is activated during the assay with MK-8722; assay type: functional; parameters: scale not given: direction of the effect not stated beside the values; conditions: 30 µM

Look over these answered cases.
| molecule | Percent Effect |
| --- | --- |
| CCc1cc(NC(CCO)c2ccc(OC)cc2)n2nccc2n1 (stereo not drawn) | 2.19% |
| Cc1cc(NC(=O)C(C)NCCn2cccn2)no1 (stereo not drawn) | -0.416% |
| Cc1cc(N2CCC(n3cc(CN4CCSCC4)nn3)CC2)ccn1 | 2.21% |
| CCN(C(=O)Cn1cc(NC(=O)C(C)(C)C)cn1)c1ccccc1 | -3.26% |
| O=C(NCc1csc(Br)c1)Nc1cn[nH]c1 | -3.79% |
| O=C1NCCCC12CCN(Cc1ccc(-c3ccccc3)s1)C2 (stereo not drawn) | 6.83% |
| CC(C(N)=O)N1CCN(c2ncc(Cl)cn2)CC1 (stereo not drawn) | -1.99% |
| CN(C)c1nc2c(c(=O)[nH]1)Cc1ccccc1OC2 | 2.09% |

Query string: Quickly give me recorded Percent Effect for COc1ccc2c(c1)OCC(Cc1cc(C(=O)N3CCCC3)ccn1)C2 (stereo not drawn)
Result string: 0.531%

Query string: Quickly give me recorded Percent Effect for CC(Oc1ccc2c(c1)OCO2)C(=O)N1CCC(N2CCOCC2)CC1 (stereo not drawn)
Result string: -2.63%

----------
molecular target: AMP-activated protein kinase, AMPK (Homo sapiens) (UniProt P54646+O43741+P54619+Q9UGJ0+Q9Y478+Q13131+Q9UGI9); assay: AMP-dependent Kinase enzyme assay. An in vitro enzyme assay that detects ADP turnover that is directly proportional to AMPK activity. This uses naive AMPK that is activated during the assay with MK-8722; format: functional; set-up: scale not given: direction of the effect not stated beside the values; conditions: 30 µM
Entries annotated with measured Percent Effect
// units = %; emit number, no label

Look over these answered cases.
| molecule | measured-parameter | unit | reported-value |
| --- | --- | --- | --- |
| Cn1ncc2c(NC3CCC3)nc(-c3ccncc3)nc21 | Percent Effect | % | 87.5 |
| Cc1cnn(C2CN(c3nc(-c4ccncc4)nc4c3CCC4)C2)c1 | Percent Effect | % | 4.55 |
| Cc1ccc(OCC(=O)N2CCOCC(O)(CN3CCCC3)C2)cc1C (stereo not given) | Percent Effect | % | 8.56 |
| CCOCc1ccc(NC(=O)N2CCOC3(CCC3)C2)cc1 | Percent Effect | % | -2.16 |

Query string: Quickly give me recorded Percent Effect for COCC1CCCN(c2cncc(OCc3ccccc3)n2)C1 (stereo not given)
Result string: 1.9

----------
Target: Tyrosyl-tRNA synthetase, putative (Trypanosoma cruzi (strain CL Brener))
Sequence (whole entry): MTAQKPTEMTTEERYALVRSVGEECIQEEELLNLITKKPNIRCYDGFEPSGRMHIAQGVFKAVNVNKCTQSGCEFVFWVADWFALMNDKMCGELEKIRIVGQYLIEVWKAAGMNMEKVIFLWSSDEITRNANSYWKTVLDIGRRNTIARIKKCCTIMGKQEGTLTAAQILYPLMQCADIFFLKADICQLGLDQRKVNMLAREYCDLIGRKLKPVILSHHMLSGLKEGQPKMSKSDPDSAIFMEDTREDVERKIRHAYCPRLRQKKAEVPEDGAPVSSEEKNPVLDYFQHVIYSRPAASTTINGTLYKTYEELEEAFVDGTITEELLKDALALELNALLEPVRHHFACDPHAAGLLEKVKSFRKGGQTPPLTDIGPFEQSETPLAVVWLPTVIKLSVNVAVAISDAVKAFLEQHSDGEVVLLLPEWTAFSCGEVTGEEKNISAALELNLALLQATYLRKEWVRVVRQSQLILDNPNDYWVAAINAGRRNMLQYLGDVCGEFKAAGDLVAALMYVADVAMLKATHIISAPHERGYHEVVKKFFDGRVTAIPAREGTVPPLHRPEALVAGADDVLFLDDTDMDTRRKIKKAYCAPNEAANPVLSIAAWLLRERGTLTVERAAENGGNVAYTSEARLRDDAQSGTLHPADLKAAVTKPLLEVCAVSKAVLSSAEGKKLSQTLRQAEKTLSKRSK
Test: Trypanosoma cruzi tyrosyl tRNA synthetase (TcYRS) SOP
Type: functional
Design: scale not given: direction of the effect not stated beside the values
Details: 30 µM
Entries annotated with measured Percent Effect
// units = %; emit number, no label

| molecule | measurement-target | measured-parameter | unit | reported-value |
| --- | --- | --- | --- | --- |
| Cn1ccc(C(=O)NCc2cccc(N3CCCCC3=O)c2)cc1=O | Tyrosyl-tRNA synthetase, putative (Trypanosoma cruzi (strain CL Brener)) | Percent Effect | % | 21.2 |
| Cc1ccc(CN2CCCn3c(nc(CN4CCCC4)cc3=O)C2)s1 | Tyrosyl-tRNA synthetase, putative (Trypanosoma cruzi (strain CL Brener)) | Percent Effect | % | 7.69 |
| c1ccc(Cn2ccnc2CN2CCCC2c2noc(C3CC3)n2)cc1 (centres undefined) | Tyrosyl-tRNA synthetase, putative (Trypanosoma cruzi (strain CL Brener)) | Percent Effect | % | 10.3 |
| Fc1cnc(N2CCOCC3(CCCN(c4nncs4)C3)C2)nc1 (centres undefined) | Tyrosyl-tRNA synthetase, putative (Trypanosoma cruzi (strain CL Brener)) | Percent Effect | % | 7.69 |

Query string: Quickly give me recorded Percent Effect for CCN(C)Cc1cnc(S(=O)(=O)CC)n1CCOC
Result string: 4.88

Query string: Quickly give me recorded Percent Effect for OC(COc1ccc(F)cc1)CN1CCC(Cn2cccn2)CC1 (centres undefined)
Result string: 23.5

Query string: Quickly give me recorded Percent Effect for CC(c1nc(C2CC2)no1)N1CCN(Cc2ccsc2)CC1 (centres undefined)
Result string: 8.43

Query string: Quickly give me recorded Percent Effect for Cc1ccc(NC(=O)C2CSCN2C(=O)c2cnn(C)c2)c(C)c1 (centres undefined)
Result string: 18.1

Query string: Quickly give me recorded Percent Effect for Cc1cnn(CC2CCCCN2CCn2cncn2)c1 (centres undefined)
Result string: 7.69

Query string: Quickly give me recorded Percent Effect for Cc1ccc(-c2nc(CN3CCCC(Cn4cncn4)C3)no2)cc1 (centres undefined)
Result string: 0

Query string: Quickly give me recorded Percent Effect for Cc1noc(C2CCN(C(=O)c3ccc(N(C)C)nc3)CC2)n1
Result string: 20.5

Query string: Quickly give me recorded Percent Effect for O=C1COC2(CCN(C(=O)c3ccco3)CC2)CN1Cc1cccnc1
Result string: 15

Query string: Quickly give me recorded Percent Effect for CC(C)(C)c1n[nH]c(C2CN(C(=O)c3ccsc3)CCO2)n1 (centres undefined)
Result string: 13.2

Query string: Quickly give me recorded Percent Effect for O=C1CC(c2ccccc2)C2(CCN(Cc3ccccn3)CC2)N1 (centres undefined)
Result string: 15

----------
Entries annotated with measured Percent Effect
biological target: AMP-activated protein kinase, AMPK (Homo sapiens) (UniProt P54646+O43741+P54619+Q9UGJ0+Q9Y478+Q13131+Q9UGI9); experiment: AMP-dependent Kinase enzyme assay. An in vitro enzyme assay that detects ADP turnover that is directly proportional to AMPK activity. This uses naive AMPK that is activated during the assay with MK-8722; format: functional; set-up: scale not given: direction of the effect not stated beside the values; settings: 30 µM
// units = %; emit number, no label

| compound | Percent Effect [%] |
| --- | --- |
| Cc1cc(C(=O)N2CCNC(=O)C2)c(C)n1Cc1ccccn1 | -10.9 |

Query string: Quickly give me recorded Percent Effect for O=C(CNC1(CCO)CCOCC1)Nc1ccc(F)cc1F
Result string: -0.128

Query string: Quickly give me recorded Percent Effect for CC(C)(C)c1nc(CC(=O)NCCC(=O)Nc2ccncc2)cs1
Result string: -4.57

Query string: Quickly give me recorded Percent Effect for CCOc1cc(Cl)ccc1CNC(=O)c1ccc(=O)n(C)c1
Result string: 10.5

Query string: Quickly give me recorded Percent Effect for NC(=O)c1ccnc(N2CCCC(CO)(Cc3ccc(F)cc3)C2)c1 (stereo not given)
Result string: 16.1
